The values you see were collected from the RepoRT retention time repository (doi:10.1007/s00216-021-03828-0).

# test-description: RP, Merck Supelco Ascentis Express C18, 100 × 2.1 mm, 2 µm, 40 °C, 0.2 mL/min, estimated dead time 1.1 min; A: water + 0.1% formic acid, pH 3; B: acetonitrile + 0.1% formic acid, pH 3; gradient (min/%B) 0/5 2/5 17/99.9 20/99.9
# protocol-conditions: stereoisomer not certain
Where a name gives a salt, the structure may show the parent alone.
Listed molecules paired with reported log10 LC retention time
result-type: log10 LC retention time (log10 of the value in min)

1. COc1cc(C(O)C(=O)O)ccc1O (configuration not stated) [3-METHOXY-4-HYDROXYMANDELATE]
0.33
2. CCCCCCCCCC(=O)O [DECANOATE]
1.11
3. CC(=O)NCCCC(=O)O [4-ACETAMIDOBUTANOATE]
0.21
4. Nc1ncnc2c1ncn2C1OC(CO)C2OP(=O)(O)OC21 (configuration not stated) [ADENOSINE 2',3'-CYCLIC PHOSPHATE]
0.12
5. O=C(O)c1ccc(O)c(O)c1 [3,4-DIHYDROXYBENZOATE]
0.48
6. O=C(O)CCC(=O)O [SUCCINATE]
0.17
7. Cc1cc2nc3c(=O)[nH]c(=O)nc-3n(CC(O)C(O)C(O)CO)c2cc1C (configuration not stated)
0.73
8. CCCCCCCCCCCC=CCCCCC(=O)[O-] [PETROSELINATE]
1.26
9. OCc1cccc(O)c1 [3-HYDROXYBENZYL ALCOHOL]
0.60
10. CCCCCCCCC=CCCCCCCCC(=O)O [ELAIDATE]
1.26
11. CC(C)CC(N)C(=O)O (configuration not stated)
0.19
12. CC(=O)NC(C)C(=O)O (configuration not stated)
0.18
13. CC(=O)C1CCC2C3CC=C4CC(OS(=O)(=O)O)CCC4(C)C3CCC12C (configuration not stated) [PREGNENOLONE SULFATE]
1.00
14. CC1NCCc2cc(O)c(O)cc21 (configuration not stated)
0.16
15. CC(=O)OCC(=O)C1(O)CCC2C3CCC4=CC(=O)CCC4(C)C3C(O)CC21C (configuration not stated) [CORTISOL 21-ACETATE]
0.98
16. CC(CCC(=O)NCC(=O)O)C1CCC2C3C(O)CC4CC(O)CCC4(C)C3CC(O)C12C (configuration not stated) [GLYCOCHOLATE]
0.96
17. Cc1cc2nc[nH]c2cc1C
0.71
18. CC(O)(CC(=O)O)C(=O)O (configuration not stated) [CITRAMALATE]
0.17
19. Nc1nc2ncc(CNc3ccc(C(=O)NC(CCC(=O)O)C(=O)O)cc3)nc2c(=O)[nH]1 (configuration not stated) [FOLATE]
0.67
20. CC(=O)NC(CCC(=O)O)C(=O)O (configuration not stated) [N-ACETYLGLUTAMATE]
0.13
21. COC(=O)Cc1c[nH]c2ccccc12 [INDOLE-3-METHYL ACETATE]
1.01
22. O=C(O)CCCCCCCC(=O)O [AZELATE]
0.84
23. CC12CCC(=O)C=C1CCC1C2C(O)CC2(C)C1CCC2(O)C(=O)CO (configuration not stated)
0.91
24. O=C(O)c1ccc(O)cc1 [4-HYDROXYBENZOATE]
0.66
25. O=c1ccn(C2CC(O)C(CO)O2)c(=O)[nH]1 (configuration not stated)
0.15
26. CC(=O)NC(Cc1ccccc1)C(=O)O (configuration not stated)
0.80
27. CC(CCC(=O)NCC(=O)O)C1CCC2C3C(O)CC4CC(O)CCC4(C)C3CCC12C (configuration not stated) [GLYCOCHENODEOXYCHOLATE]
1.02
28. CC(=O)NC(CC(C)C)C(=O)O (configuration not stated)
0.77
29. CCCCC(N)C(=O)O (configuration not stated)
0.21
30. CCCCCCCCCCCCCCCCCC(=O)[O-] [STEARATE]
1.28
31. Oc1ccc(O)cc1 [HYDROQUINONE]
0.67
32. O=C([O-])CCCCCCC(=O)[O-] [SUBERATE]
0.78
33. CC(O)(CCO)CC(=O)[O-] (configuration not stated) [MEVALONATE]
0.19
34. CSCC1OC(n2cnc3c(N)ncnc32)C(O)C1O (configuration not stated)
0.61
35. O=C(O)C=Cc1ccc(O)cc1 [4-COUMARATE]
0.80
36. Nc1nc2c(ncn2C2OC3COP(=O)(O)OC3C2O)c(=O)[nH]1 (configuration not stated)
0.12
37. Cc1cn(C2CC(O)C(CO)O2)c(=O)[nH]c1=O (configuration not stated)
0.31
